Reference source: the supplement of paper PMC10201428

B1: library; a variant is named by its letters at N, in order (parent)
chain: AATGTTGTTGATGCAACCATAAAGTGATATTTAATAATTATTTATAATCAGCAACTTAACCACAAAACAACCATATATTGATATNTCACAAAACAACCATAANTTGATATTTTTGTGAATCGAGTATTTCAGCAAAACTACTGCAGTAAGAA

Variants of: B1
Experiment: relative integration efficiency (T-RL orientation) vs wild-type transposon end (log2 (normalized fold change)); transposon end mutated: left end; higher = more efficient transposition
Conditions: with VchCAST RNA-guided transposition machinery (E. coli BL21(DE3) host, lacZ target)
reported.metric: relative integration efficiency (log2)
Please state the value as a number alone, without comment.

These recorded examples may help you get a feel for the data.
For the variant CG T45A A46T A47T T48A , give its reported relative integration efficiency (log2).
0.0806

For the variant CG T74G , give its reported relative integration efficiency (log2).
-1.35

For the variant TA A22T G24T T31C A33C A70C T76A T84A C87A A96C T110A T113A , give its reported relative integration efficiency (log2).
-0.504

For the variant CG C17G C18G A19T T20A , give its reported relative integration efficiency (log2).
-1.56

For the variant CG A15T A16T C17G C18G , give its reported relative integration efficiency (log2).
-0.824

For the variant CG T57G , give its reported relative integration efficiency (log2).
-1.33

Let's switch to this variant now.
For the variant TA A70C T76A T86G A96C T110A T113A , give its reported relative integration efficiency (log2).
-0.255
